tested on: RAW-Dual (murine macrophage reporter line); assay: IRF reporter (Lucia luciferase) activity fold change vs agonist alone; higher = enhanced IRF activity; details: modulator concentration 10 µM; agonist: LPS 0.1 ug/mL
measurement_label: IRF reporter

// solved cases for IRF reporter follow
compound	target_desc	IRF reporter
COc1cccc(-c2ccc(NC(=O)C3=C(C(=O)O)CCC3)c(F)c2)c1	RAW-Dual (murine macrophage reporter line)	2.04
COc1ccc(C=NN2CCN(C)CC2)c(OC)c1	RAW-Dual (murine macrophage reporter line)	1.25
CC[C@H](C)C(=O)O[C@H]1C[C@@H](C)C=C2C=C[C@H](C)[C@H](CC[C@@H]3C[C@@H](O)CC(=O)O3)[C@H]21	RAW-Dual (murine macrophage reporter line)	0.795

Read off the recorded IRF reporter for Cc1ccc(C(CNC(=O)Cc2cccc3ccccc23)N(C)C)cc1 (stereo not given) 1.03

----------
Listed molecules paired with reported viability score
test system: RAW-Dual (murine macrophage reporter line); assay: viability score (confluency relative to resting cells, overnight) (fraction); higher = more viable, active = viable (0.7 or more); settings: modulator concentration 10 µM

Solved entries:
molecule	viability score
COc1ccc(S(=O)(=O)NNc2ccc([N+](=O)[O-])cc2[N+](=O)[O-])cc1	0.962 (active)
CC1(C)CC(=O)C=C(Nc2ccc(Br)c(Cl)c2)C1	1.02 (active)
N#CC[C@@H](C1CCCC1)n1cc(-c2ncnc3[nH]ccc23)cn1	0.999 (active)
COc1ccc(C2C3=C(CC(c4ccccc4)CC3=O)Nc3ccccc3N2C(=O)C(C)C)cc1OC (stereo not given)	1.01 (active)

Return the recorded viability score value; entry: CC[C@@]1(O)C(=O)OCc2c1cc1n(c2=O)Cc2cc3c(CN(C)C)c(O)ccc3nc2-1 [Prestw-1196] 0.689 (inactive)

Return viability score for the following molecule: CCCN1CCC(NCCc2ccc(Cl)cc2)CC1 0.995 (active)

Fill in reported viability score for this entry: COc1cccc(S(=O)(=O)N2CCCC(c3nnc(C(F)(F)F)o3)C2)c1 (stereo not given) 1.02 (active)

Tell me its viability score given O=C(O)CCCNC(=O)c1cccc([N+](=O)[O-])c1 as the entry. 1 (active)

Query viability score for CCCc1nc2ccccc2n1C(=O)C=CC(=O)O 1 (active)

Consider the molecule c1ccc(CCn2c(COc3ccccc3)nc3ccccc32)cc1 . State its measured viability score. 1.01 (active)

----------
system: RAW-Dual (murine macrophage reporter line); assay: IRF reporter (Lucia luciferase) activity fold change vs agonist alone; higher = enhanced IRF activity; conditions: modulator concentration 10 µM; agonist: MPLA […]
Below, each of the compounds is paired with its reported IRF reporter value.
Give the figure by itself; no unit, no explanation.

Previously resolved entries follow.
compound	IRF reporter
Cc1n[nH]c(C)c1S(=O)(=O)N1CCCN(C(=O)Cc2ccccc2Cl)CC1	1.26
N#Cc1ccnc(N2C(=O)CC[C@H]2C(=O)N(c2cncc(F)c2)[C@H](C(=O)NC2CC(F)(F)C2)c2ccccc2Cl)c1	1.17
CC(C)C(=O)Nc1ccc([N+](=O)[O-])c(C(F)(F)F)c1	1.04
CCCCc1oc2ccccc2c1C(=O)c1cc(I)c(OCCN(CC)CC)c(I)c1.Cl	1.77
NNC(=O)c1ccncc1	1.11
CCc1sc2sncc2c1Br	0.549
CCS(=O)(=O)N1CCC(Oc2cc(C)nc(C)n2)CC1	0.916
CC(=O)NNC(=O)c1ccncc1	1.07

Return IRF reporter (reported value) for this compound: O=C(NCC#CCN1CCc2ccccc2C1)c1cccc(Br)c1 1.26

Kindly indicate its recorded IRF reporter. Item: Nc1cccc(O)c1 0.938

Note IRF reporter for the compound shown: Cc1cc(OC2CN(C(=O)CSCc3ccccc3)C2)cc(=O)n1C1CC1 1.11

Recorded values, source the supplement of paper PMC10646978.
